molecular target: Aβ42 (Homo sapiens, UniProt P05067); test: Th-T (thioflavin-T) assay of Aβ42 aggregation; format: biochemical; conditions: reading M17; Supplementary Fig. 47 source data
Sequence (P05067 672-713): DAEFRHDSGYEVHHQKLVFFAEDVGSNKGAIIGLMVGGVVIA
outcome-measure: Th-T fluorescence, mean of three wells

C=C1CCC2C(C)(CC(=O)C=C(C)C)C(O)CCC2(C)C1Cc1c(OC)oc(CO)c(C)c1=O (stereo not drawn) [Compound 19]
1.1695
C=C1CC[C@@H]2[C@](C)(CC[C@H]3O[C@H](C=C(C)C)C[C@@]23C)[C@@H]1Cc1c(O)c(C)c(C)oc1=O [Compound 10, higginsianin A]
2.114
CC(C)=CCC/C(C)=C/CC/C(C)=C/CC/C(C)=C/Cc1c(O)c(C)c(C)oc1=O [Compound 2]
2.473
C=C1CCC2C(C)(CCC=C(C)C)C(O)CCC2(C)C1Cc1c(O)c(C)c(C)oc1=O (stereo not drawn) [Compound 9, higginsianin B]
1.394
C=C1CCC2C(C)(CC(=O)C=C(C)C)C(O)CCC2(C)C1Cc1c(OC)oc(C)c(C)c1=O (stereo not drawn) [Compound 25]
3.101
C=C1CCC2C(C)(CCC=C(C)C)C(O)CCC2(C)C1Cc1c(OC)oc(C)c(C)c1=O (stereo not drawn) [Compound 11]
2.688
C=C1CC[C@H]2[C@]3(C)C[C@@H](C=C(C)C)O[C@H]3CC[C@]2(C)[C@@H]1Cc1c(OC)oc(CO)c(C)c1=O [Compound 17]
2.658
C=C1CCC2C3(C)CC(C=C(C)C)OC3CCC2(C)C1Cc1c(OC)oc(C)c(C)c1=O (stereo not drawn) [Compound 23]
3.2228
C=C1CCC2C(C)(CCC=C(C)C)C(O)CCC2(C)C1Cc1c(OC)oc(C)c(C)c1=O (stereo not drawn) [Compound 15, viridoxin A hydrolysate]
2.072
C=C1CC[C@H]2[C@]3(C)C[C@H](C=C(C)C)O[C@H]3CC[C@]2(C)[C@@H]1Cc1c(OC)oc(CO)c(C)c1=O [Compound 18]
3.39
C=C1CCC2C(C)(CCC=C(C)C)C(O)CCC2(C)C1Cc1c(O)c(C)c(C)oc1=O (stereo not drawn) [Compound 4]
1.91
C=C1CC[C@H]2[C@]3(C)C[C@H](C=C(C)C)O[C@H]3CC[C@]2(C)[C@@H]1Cc1c(OC)oc(C)c(C)c1=O [Compound 24]
3.637
C=C1CC[C@H]2[C@]3(C)C[C@@H](C=C(C)C)O[C@H]3CC[C@]2(C)[C@@H]1Cc1c(O)c(C)c(C)oc1=O [Compound 5, subglutinol A]
1.838
C=C1CCC2C(C)(CC(=O)C=C(C)C)C(O)CCC2(C)C1Cc1c(O)c(C)c(C)oc1=O (stereo not drawn) [Compound 7]
0.9169
C=C1CC[C@H]2[C@]3(C)C[C@H](C=C(C)C)O[C@H]3CC[C@]2(C)[C@@H]1Cc1c(O)c(C)c(C)oc1=O [Compound 6, subglutinol B]
1.192

Data origin: paper PMC7156458
